Source of measurements: PubChem BioAssay AID1745844

# Tested on: rodent lifetime carcinogenesis bioassay, tumor incidence TD50
# measurement.protocol: carcinogenic potency in animals, long-term in vivo studies, CPDB compilation (AID 1745844)
# experimental.conditions: mouse; strain CD-1 HaM/ICR; males; in feed; site: lung; lesion: several types; types named in the paper; dosed 55 weeks; study length 60 weeks
Active and inactive are the calls of the source. The rule behind the calls is not given here.

substance.smiles	TD50
Cc1cc(Cl)ccc1N	8.85 mg/kg/day (inactive)

* * *

# Tested on: rodent lifetime carcinogenesis bioassay, tumor incidence TD50
# measurement.protocol: carcinogenic potency in animals, long-term in vivo studies, CPDB compilation (AID 1745844)
# experimental.conditions: rat; strain Sprague-Dawley; males; in feed; site: thyroid gland; lesion: several types; types named in the paper; dosed 104 weeks; study length 104 weeks
The reader will find reported TD50 values listed item by item below.
outcome.measure: TD50

substance.smiles	outcome.measure	value.observed
Clc1ccc(-c2ccc(Cl)c(Cl)c2Cl)c(Cl)c1Cl	TD50	10.3 mg/kg/day
Clc1cccc(-c2ccc(Cl)c(Cl)c2Cl)c1Cl	TD50	16.1 mg/kg/day
